Species on record: Cavia porcellus
PROCEDURE_SUMMARY: Equilibrium dissociation constant receptor complex, measured in guinea pig urinary bladder
Type: functional
Please go through the items and note down their Kd.
Units required after the number.

Entry CCN(CC)CC#CCN1C(=O)CCC1C (stereo not drawn) , Kd reported as 2100 nM

In plain terms, CC(=O)N(C)C(C)C#CCN1CCCC1 (stereo not drawn) has a documented Kd of 140 nM

Sample CC[N+](C)(C)CC#CCN1C(=O)CCC1C.[I-] (stereo not drawn) ; Kd observed: 3500 nM

The molecule identified as CC1CCC(=O)N1CC#CCN(C)C (stereo not drawn) registered its Kd at 11800 nM

"C[N+](C)(C)CCOC(N)=O.[Cl-]" has a reported Kd of 17000 nM

Item: CC1CCC(=O)N1CC#CCN1CCC1 (stereo not drawn) | Kd: 580 nM

Kd for CC1CCC(=O)N1CC#CC[N+](C)(C)C.[I-] (stereo not drawn) is 2800 nM

Kd reported for this molecule CCN(C)CC#CCN1C(=O)CCC1C (stereo not drawn) : 2500 nM

---

Consider the following molecules; for each one, report its EC50.
Species on record: Cavia porcellus
PROCEDURE_SUMMARY: Concentration that elicits 50% of its own maximum contractile response in guinea pig urinary bladder
Assay type: functional
State the result as a value with its unit after it.

The molecule CC1CCC(=O)N1CC#CCN(C)C (centres undefined) showed EC50 equal to 15 µM

The value of EC50 measured for the molecule CC1CCC(=O)N1CC#CC[N+](C)(C)C.[I-] (centres undefined) turned out to be 2 µM

EC50 reading for "C[N+](C)(C)CCOC(N)=O.[Cl-]" : 0.9 µM

Please fill in: EC50 reported for CC1CCC(=O)N1CC#CCN1CCC1 (centres undefined) = 4.6 µM

---

Assignment: determine reported ED50 for the given compounds.
System: Mus musculus
PROCEDURE_SUMMARY: Central muscarinic activity administered intraperitoneally to mice, expressed as analgesia
Type: functional
STATED_CONDITIONS: ip
Hi! Could you send only the number? It should be in µmol/kg, unit omitted.

Field ED50 (Mus musculus), entry CC(=O)N(C)C(C)C#CCN1CCCC1 (centres undefined) : 0.37

Result for CC1CCC(=O)N1CC#CCN1CCC1 (centres undefined) , tested on Mus musculus, ED50: 0.71

Record CC1CCC(=O)N1CC#CCN(C)C (centres undefined) / Mus musculus, ED50 recorded as 1.5

The reported Mus musculus ED50 of "O=C1CCCN1CC#CCN1CCCC1" is 0.05

---

PROCEDURE_SUMMARY: Acute toxicity administered intraperitoneally to mice
Assay type: organism-based
STATED_CONDITIONS: mouse, in vivo, ip
ENDPOINT_NAME: LD50 (µmol/kg)
Numeric answer only, unit µmol/kg assumed.

The compound identified as CC(=O)N(C)C(C)C#CCN1CCCC1 (stereo not drawn) registered its LD50 at 665

Briefly, LD50 measured for CC1CCC(=O)N1CC#CC[N+](C)(C)C.[I-] (stereo not drawn) : 33.6

LD50 in this record for CC1CCC(=O)N1CC#CCN1CCCC1 (stereo not drawn) : 107

The recorded LD50 for CC[N+](C)(C)CC#CCN1C(=O)CCC1C.[I-] (stereo not drawn) is 176

Lab note: measured LD50 of CCN(CC)CC#CCN1C(=O)CCC1C (stereo not drawn) was 720

Looking up CC1CCC(=O)N1CC#CCN(C)C (stereo not drawn) , I found its LD50 recorded as 402

So, CCN(C)CC#CCN1C(=O)CCC1C (stereo not drawn) ? Its LD50 was 636

Briefly, LD50 measured for CC1CCC(=O)N1CC#CCN1CCC1 (stereo not drawn) : 192

---

Assignment: determine reported pEC50 for the given compounds.
Organism: Cavia porcellus
PROCEDURE_SUMMARY: Concentration that elicits 50% of its own maximum contractile response in guinea pig ileum
Assay type: functional
The value called pEC50 is obtained by taking minus log10 of the concentration in mol/L.

response.value for C[N+](C)(C)CCOC(N)=O.[Cl-] [CARBACHOL] (field: pEC50) = 6.96

According to the records, this compound CC1CCC(=O)N1CC#CCN1CCC1 (stereo unspecified) displays pEC50 of 6.64

Documented pEC50 of CC(=O)N(C)C(C)C#CCN1CCCC1 (stereo unspecified) : 6.72

// pEC50 value for CC[N+](C)(C)CC#CCN1C(=O)CCC1C.[I-] (stereo unspecified) : 5.49

// field: pEC50; key: CC1CCC(=O)N1CC#CC[N+](C)(C)C.[I-] (stereo unspecified) ; value = 6.74

pEC50 measured on CC1CCC(=O)N1CC#CCN(C)C (stereo unspecified) = 6.04

Source of measurements: ChEMBL document CHEMBL1124068
